Molecular target: RORc (Homo sapiens)
Sequence (P51449 269-508 limits assumed): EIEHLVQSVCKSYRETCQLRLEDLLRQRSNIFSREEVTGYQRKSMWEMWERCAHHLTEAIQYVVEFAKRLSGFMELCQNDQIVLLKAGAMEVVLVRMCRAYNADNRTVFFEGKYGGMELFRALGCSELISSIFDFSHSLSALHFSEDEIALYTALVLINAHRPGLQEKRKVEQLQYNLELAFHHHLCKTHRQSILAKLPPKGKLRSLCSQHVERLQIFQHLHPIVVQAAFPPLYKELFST
pIC50: −log10 of the molar value. Where a name gives a salt, the structure may show the parent alone.
Observed Property: pIC50

Some compounds with recorded pIC50:
Compound: C[C@H]1CC[C@H](c2ccccc2)S(=O)(=O)N1Cc1ccc(C2(C(=O)NCCN(C)C)CCOCC2)cc1F [Compound 53]
Target Or System: RORc (Homo sapiens)
pIC50: 6.07
--
Compound: C[C@H]1CC[C@H](c2ccccc2)S(=O)(=O)N1Cc1cc(F)c(C2(C(N)=O)CC2)cc1F [Compound 125]
Target Or System: RORc (Homo sapiens)
pIC50: 6.46
--
Compound: C[C@H]1CC[C@H](c2ccccc2)S(=O)(=O)N1Cc1ccc(C2(C(=O)NCCCN)CCOCC2)cc1F [Compound 55]
Target Or System: RORc (Homo sapiens)
pIC50: 6.04
--
Compound: C[C@H]1CC[C@H](c2ccccc2)S(=O)(=O)N1Cc1ccc(C2(/C=C/C#N)CCOCC2)cc1F [Compound 72]
Target Or System: RORc (Homo sapiens)
pIC50: 8.06
--
Compound: C[C@H]1CC[C@@H](c2ccccc2)S(=O)(=O)N1Cc1ccc(C2(C(=O)NCCO)CCOCC2)cc1F [Compound 47]
Target Or System: RORc (Homo sapiens)
pIC50: 6.00

(A) C[C@H]1CC[C@H](c2ccccc2)S(=O)(=O)N1Cc1ccc(C2(N)CC2)cc1F [Compound 153, hydrochloride]
(B) COC1(OC)CC(C#N)(c2ccc(CN3[C@@H](C)CC[C@H](c4ccccc4)S3(=O)=O)c(F)c2)C1 [Compound 160]
(C) CCOC(=O)CNC1(c2ccc(CN3[C@@H](C)CC[C@H](c4ccccc4)S3(=O)=O)c(F)c2)CCOCC1 [Compound 161]
(D) C[C@H]1CC[C@H](c2ccccc2)S(=O)(=O)N1Cc1ccc(C2(NC[C@@H](O)CO)CCOCC2)cc1F [Compound 108]
(E) C[C@H]1CC[C@H](c2ccccc2)S(=O)(=O)N1Cc1cc(F)c(C2(O)COC2)cc1F [Compound 192]
Arrange these compounds by their pIC50, starting with the largest number. Rank the items, then write their labels in that order.
E, B, C, D, A

(a) C[C@H]1CC[C@H](c2ccccc2)S(=O)(=O)N1Cc1ccc(C2(C(=O)NCCN)CCOCC2)cc1F [Compound 52]
(b) C[C@H]1CC[C@H](c2ccccc2)S(=O)(=O)N1Cc1ccc(C2(CC#N)COC2)cc1F [Compound 105]
// compare measured pIC50 between a and b ; output the lower one // return label of chosen record
a
(a: 6.32, b: 7.13)

(a) C[C@H]1CC[C@H](c2ccccc2)S(=O)(=O)N1Cc1cc(F)c(C2(C(N)=O)CC(=O)C2)cc1F [Compound 193]
(b) C[C@H]1CC[C@H](c2ccccc2)S(=O)(=O)N1Cc1ccc(C2(NCCCO)CCOCC2)cc1F [Compound 187]
(c) C[C@H]1CC[C@H](c2ccccc2)S(=O)(=O)N1Cc1ccc(OCC2(F)CCOCC2)cc1F [Example 5]
Could you please sort these 3 entries by pIC50 from high to low? // list labels; follow requested order
a, b, c
